# maps each entry to its phosphorylation enrichment
system: Fer (mouse); experiment: phosphorylation enrichment, bacterial display (enrichment ratio); higher = better substrate or ligand; peptides without Tyr show the background;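 also: 11-residue human phosphosite peptides and single-mutation variants displayed on the E. coli surface, counted by deep sequencing, each peptide's frequency after selection divided by its frequency in the unselected input library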;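 also: frequency after pTyr selection over input frequency; kinase dosed for 20-30% of maximal phosphorylation in three min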

| SEQUENCE CHAIN | phosphorylation enrichment |
| --- | --- |
| FDCGMYSHLQG [LGR4_Y848_YF] | 1.64 |
| TRYDEYLEVTK [MAP1A_Y2217_H2214Y] | 0.592 |
| ANNEFYFQVCA | 0.601 |
| CCNHPYLINGA [CHD7_Y1256] | 0.419 |
| HVEAVYIDIAD [PITPNA_Y140] | 2.23 |
| NKEAICSGYIR [SMCHD1_Y283_Y283C] | 0.446 |
| QRPGPYDRPGA [HNRNPH2_Y210] | 0.281 |
| SELVCYDARVH [MET_Y971_R970C] | 0.49 |
| AGQKDYDRLRP [RAC3_Y64_E62K] | 0.787 |
| RHNEIYEIKVD [LGR5_Y387] | 0.915 |
| FAKTQYPDIYA [CRX_Y63_V66I] | 0.359 |
| TVLEPYTDPYY [ZC3H18_Y367_A368T] | 0.433 |
| DAVAVCHGKIS [SH2D1A_Y7_Y7C] | 0.467 |
| RNGDRYFKGIV [DCX_Y64] | 0.549 |
| DPYHVYIKNHV [KCNE3_Y95_R99H] | 0.45 |

====

molecular target: EPHB2 (UniProt P29323); assay: phosphorylation enrichment, bacterial display (enrichment ratio); higher = better substrate or ligand; peptides without Tyr show the background
Sequence (P29323 whole entry, looked up): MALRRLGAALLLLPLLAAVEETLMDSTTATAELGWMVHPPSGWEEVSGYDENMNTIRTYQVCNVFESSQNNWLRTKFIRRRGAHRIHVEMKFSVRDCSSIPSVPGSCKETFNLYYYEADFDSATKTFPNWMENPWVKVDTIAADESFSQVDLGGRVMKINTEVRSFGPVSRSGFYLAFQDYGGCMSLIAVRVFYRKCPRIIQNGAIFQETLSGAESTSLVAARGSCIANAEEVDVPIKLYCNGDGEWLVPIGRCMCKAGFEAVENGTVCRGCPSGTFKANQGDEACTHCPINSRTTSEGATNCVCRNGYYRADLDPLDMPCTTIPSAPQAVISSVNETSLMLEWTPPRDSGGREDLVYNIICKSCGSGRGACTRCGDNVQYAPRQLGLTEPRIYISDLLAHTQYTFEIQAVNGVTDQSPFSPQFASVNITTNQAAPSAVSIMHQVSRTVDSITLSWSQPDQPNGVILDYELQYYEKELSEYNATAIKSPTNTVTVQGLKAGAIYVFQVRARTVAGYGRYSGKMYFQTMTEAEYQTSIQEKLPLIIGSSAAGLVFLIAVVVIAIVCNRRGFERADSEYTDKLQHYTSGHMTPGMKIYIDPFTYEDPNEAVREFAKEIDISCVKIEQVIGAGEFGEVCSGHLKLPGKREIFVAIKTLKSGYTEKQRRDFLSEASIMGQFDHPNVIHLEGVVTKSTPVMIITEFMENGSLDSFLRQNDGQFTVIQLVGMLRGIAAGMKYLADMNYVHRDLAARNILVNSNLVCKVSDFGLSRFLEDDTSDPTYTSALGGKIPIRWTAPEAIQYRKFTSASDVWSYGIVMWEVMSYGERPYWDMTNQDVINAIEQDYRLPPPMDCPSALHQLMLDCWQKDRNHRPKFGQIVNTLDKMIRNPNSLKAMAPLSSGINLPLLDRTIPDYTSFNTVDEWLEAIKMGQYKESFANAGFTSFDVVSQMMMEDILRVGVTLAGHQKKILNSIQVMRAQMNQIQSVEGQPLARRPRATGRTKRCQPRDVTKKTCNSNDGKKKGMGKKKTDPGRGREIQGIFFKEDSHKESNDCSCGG

| SEQUENCE CHAIN | phosphorylation enrichment |
| --- | --- |
| EKSREYHRLFE [PIK3R1_Y463_D464H_YF] | 0.483 |
| PSVVAYPKRSQ [MARK3_Y432] | 0.413 |
| CTLLPYFSARV [DGKE_Y269_YF] | 0.615 |
| SLQFEYVHYGG [CDC14A_Y591_S589F] | 0.628 |
| NVTGHYISPFH [PPA2_Y59] | 0.493 |
| MFNPCYGLFEF [NEDD4L_Y680_Y679C_YF] | 0.65 |
| LANNEYYFRVC | 0.993 |
| LSAPEYGPKLK [TBC1D14_Y46] | 0.425 |
| EEQKKYFNAMK [SCN5A_Y1494_YF] | 0.474 |
| LADMNYVHCDL [EPHB2_Y742_R745C] | 0.578 |
| VERIGYDFIPT [CBS_Y308_G305R] | 0.461 |
| HSDYQYGQRSQ [PKP2_Y168_S169G] | 0.335 |
| HRAVEYLLTGI [RAD23A_Y197] | 0.636 |
| RGRSTCFWPRP [GAGE12J_Y9_Y9C_YF] | 0.733 |
| YSKDNYKRVTG [PANK2_Y405] | 0.44 |
| AWVARYIFKRL [LPCAT3_Y348] | 0.472 |
| QRPYVYYYSYL [PTEN_Y176_R173P] | 4.08 |
| SHLLRYLSWTV [CLCNKB_Y93] | 0.528 |
| DSSIRYLQEIH [FGG_Y135_Y140H] | 0.402 |
| KVWGIYDCQQP [CYP3A7_Y75] | 2.3 |
| VLALWYFFLTH [ZDHHC23_Y127_YF] | 0.676 |
| FTRNYYVWAVL [CYBA_Y88_R90W] | 1.55 |
| KSIEEYLKLVG [RASAL2_Y381] | 0.581 |
| KAIMIYVSSFY [ACTN4_Y260_T259I] | 0.52 |
| ELELLYPDRNS [NYX_Y284_L285P] | 0.544 |
| SIKHKYVTALY [KCNH2_Y611_D609H] | 0.4 |
| EAGKVYLKAPM [CBFB_Y96] | 0.524 |
| ATGMEYLASQK [FGFR2_Y616_R612T] | 0.495 |
| TRLAQYDSNSK [BMX_Y216_S212R] | 0.402 |
| KNNDGYIDFAE [MCFD2_Y135_YF] | 0.483 |
| FLAVGYHQPHI [IDS_Y225_K227Q] | 0.415 |
| NGSKAYAFVHF [PABPC5_Y147_G146A_YF] | 0.606 |
| LNEVGYDDIGG [VCP_Y203] | 1.04 |
| SVTCTYSRALN [TP53_Y126_P128R] | 0.602 |
| IGLHAYGDQYR [IDH1_Y135_R132L] | 0.487 |
| VSTAVYKRFPS [BEST1_Y148] | 0.382 |
| VQQVIYATGAL [MYH7_Y422] | 0.986 |
| GHGEEYPAAGA [NOTCH3_Y2221] | 0.327 |
| SELVCYDARVH [MET_Y971_R970C] | 0.673 |
| CERLPYDANKW [FLT1_Y815_S818N] | 0.602 |
| ELPEKYSQNIY [PKP2_Y626] | 0.526 |
| LTTEAYEWEPC [ELMOD3_Y61_R66C] | 2.44 |

====

biological target: Fyn (UniProt P06241); assay: phosphorylation enrichment, bacterial display (enrichment ratio); higher = better substrate or ligand; peptides without Tyr show the background
Sequence (P06241 whole entry, looked up): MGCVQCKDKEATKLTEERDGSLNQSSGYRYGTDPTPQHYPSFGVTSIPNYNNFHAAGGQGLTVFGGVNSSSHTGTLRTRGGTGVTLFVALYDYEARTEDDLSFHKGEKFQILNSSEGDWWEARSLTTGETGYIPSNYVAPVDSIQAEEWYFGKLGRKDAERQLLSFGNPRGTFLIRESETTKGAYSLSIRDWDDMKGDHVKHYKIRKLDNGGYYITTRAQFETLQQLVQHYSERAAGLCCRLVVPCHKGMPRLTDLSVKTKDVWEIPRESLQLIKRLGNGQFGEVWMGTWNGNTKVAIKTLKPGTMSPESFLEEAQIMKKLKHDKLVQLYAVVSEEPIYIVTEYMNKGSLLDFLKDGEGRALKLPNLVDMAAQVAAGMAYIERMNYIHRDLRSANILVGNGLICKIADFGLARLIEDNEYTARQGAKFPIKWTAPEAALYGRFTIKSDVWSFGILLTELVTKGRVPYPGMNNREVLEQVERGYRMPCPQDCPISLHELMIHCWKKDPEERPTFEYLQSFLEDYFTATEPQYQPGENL
Each entry gets Not fulfilled if its phosphorylation enrichment stays under 0.5, and Fulfilled if its phosphorylation enrichment is 0.5 or above.

| SEQUENCE CHAIN | TEST SYSTEM | ANSWER LABEL |
| --- | --- | --- |
| SVTCTYSPAFN [TP53_Y126_L130F] | Fyn (UniProt P06241) | Fulfilled |
| QEALEYFMKQT [PIK3CA_Y1038_M1043T] | Fyn (UniProt P06241) | Fulfilled |
| QMQAAYQKVVA [HBD_Y131] | Fyn (UniProt P06241) | Not fulfilled |
| WNDLDYMDSRR [GAA_Y407] | Fyn (UniProt P06241) | Not fulfilled |
| PRDSGYSFETI [MAP1B_Y1921_S1917R_YF] | Fyn (UniProt P06241) | Fulfilled |
| VSGIPYGQPKQ [NEU1_Y251] | Fyn (UniProt P06241) | Not fulfilled |
| FRASFYRRGDR [LTK_Y677_YF] | Fyn (UniProt P06241) | Fulfilled |
| QMVGMYAFSYM [AVPR2_Y124_S126F] | Fyn (UniProt P06241) | Fulfilled |
| YSKDNYKRVTG [PANK2_Y405] | Fyn (UniProt P06241) | Not fulfilled |
| EVASVYQSYQP [MAVS_Y92] | Fyn (UniProt P06241) | Fulfilled |
| AHPIIYEIIEA [PYKtide_E_2014] | Fyn (UniProt P06241) | Fulfilled |
| RIILLYIFLKN [STXBP1_Y411] | Fyn (UniProt P06241) | Not fulfilled |
| CTLLPYFSARV [DGKE_Y269_YF] | Fyn (UniProt P06241) | Not fulfilled |

====

target: EPHB1 (UniProt P54762); test: phosphorylation enrichment, bacterial display (enrichment ratio); higher = better substrate or ligand; peptides without Tyr show the background
Sequence (P54762 whole entry, looked up): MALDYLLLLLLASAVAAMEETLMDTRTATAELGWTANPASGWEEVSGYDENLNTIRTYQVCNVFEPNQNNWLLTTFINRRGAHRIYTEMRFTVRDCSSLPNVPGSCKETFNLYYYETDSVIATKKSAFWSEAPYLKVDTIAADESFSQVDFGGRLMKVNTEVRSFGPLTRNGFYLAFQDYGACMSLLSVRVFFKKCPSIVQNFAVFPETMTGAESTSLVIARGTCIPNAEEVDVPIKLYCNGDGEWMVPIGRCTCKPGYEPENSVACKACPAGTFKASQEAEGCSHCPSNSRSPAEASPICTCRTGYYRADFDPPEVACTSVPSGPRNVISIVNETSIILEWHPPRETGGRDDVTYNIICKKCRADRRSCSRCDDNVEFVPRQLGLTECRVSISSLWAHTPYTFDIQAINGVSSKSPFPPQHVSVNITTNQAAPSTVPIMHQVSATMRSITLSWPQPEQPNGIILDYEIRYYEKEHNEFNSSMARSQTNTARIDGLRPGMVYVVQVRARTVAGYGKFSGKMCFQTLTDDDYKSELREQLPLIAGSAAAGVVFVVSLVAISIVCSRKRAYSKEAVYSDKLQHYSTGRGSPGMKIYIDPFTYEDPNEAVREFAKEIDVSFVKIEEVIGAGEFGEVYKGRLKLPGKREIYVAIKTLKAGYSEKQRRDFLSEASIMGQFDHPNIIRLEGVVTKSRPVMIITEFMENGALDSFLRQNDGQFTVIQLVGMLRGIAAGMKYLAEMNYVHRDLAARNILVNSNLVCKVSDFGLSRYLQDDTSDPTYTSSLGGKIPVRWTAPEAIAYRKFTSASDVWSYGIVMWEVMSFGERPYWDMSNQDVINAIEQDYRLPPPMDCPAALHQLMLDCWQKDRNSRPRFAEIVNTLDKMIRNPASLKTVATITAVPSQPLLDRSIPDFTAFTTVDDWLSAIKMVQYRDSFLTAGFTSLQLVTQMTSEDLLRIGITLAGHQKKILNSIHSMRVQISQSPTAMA
PROPERTY NAME: phosphorylation enrichment

| SEQUENCE CHAIN | TEST SYSTEM | MEASURED VALUE |
| --- | --- | --- |
| YLEKYYKFGSR [NNMT_Y25] | EPHB1 (UniProt P54762) | 0.453 |
| GGFTCCCDGKK [PROS1_Y266_Y266C_YF] | EPHB1 (UniProt P54762) | 0.736 |
| LRSELYFLIAR [PHIP_Y16] | EPHB1 (UniProt P54762) | 1.54 |
| ARDVIYIIIPA [FRKtide_2014] | EPHB1 (UniProt P54762) | 2.48 |
| ERFAFYRDSPR [FOXE3_Y108] | EPHB1 (UniProt P54762) | 0.456 |
| RSACTYLAPHL [PLK3_Y615_S618P] | EPHB1 (UniProt P54762) | 1.88 |
| VAMDDYLKNVV [LRRK2_Y707_M712V] | EPHB1 (UniProt P54762) | 0.482 |
| PLQNTYNFNVL [SLC4A1_Y553_K551N_YF] | EPHB1 (UniProt P54762) | 0.798 |
| QRPYVYYYSYL [PTEN_Y176_R173P] | EPHB1 (UniProt P54762) | 4.84 |
| IRKAEYPFSSE [ATP2C1_Y452] | EPHB1 (UniProt P54762) | 0.414 |
| FMFKVYSDPQP [FGFR1_Y280_C277Y_YF] | EPHB1 (UniProt P54762) | 1.08 |
| VITDFYVDMKF [MPP4_Y567_YF] | EPHB1 (UniProt P54762) | 1.31 |
| QTEAPYRFIYM [PTPN11_Y511_Q510P] | EPHB1 (UniProt P54762) | 0.93 |
| KDKLPYLFDDP [GPX2_Y125_P126L_YF] | EPHB1 (UniProt P54762) | 0.632 |
| RIGRKCKKVRF [F8_Y442_Y442C] | EPHB1 (UniProt P54762) | 0.567 |
| LTELGYSFVTT [ACTA1_Y200_R198L] | EPHB1 (UniProt P54762) | 1.44 |
| NTQRPYYKGGG [TYROBP_Y111] | EPHB1 (UniProt P54762) | 0.331 |
| HAVFVCDICHV [TWNK_Y508_Y508C_YF] | EPHB1 (UniProt P54762) | 0.627 |
| GKAFIYASHIV [ZNF573_Y229] | EPHB1 (UniProt P54762) | 0.557 |
| MFKPMYALFRT [HUWE1_Y4078_N4075K] | EPHB1 (UniProt P54762) | 0.963 |
| PVGVLYKVKVF [PTS_Y128_YF] | EPHB1 (UniProt P54762) | 1.14 |
| MICSAYALGGL [CPS1_Y590_R587C] | EPHB1 (UniProt P54762) | 0.623 |
| KYLENYYDLKK [MMP3_Y41] | EPHB1 (UniProt P54762) | 7.15 |
| PIFLFYLMDLS [ITGB2_Y131_D128Y_YF] | EPHB1 (UniProt P54762) | 2.51 |
| NVTGHYISPFH [PPA2_Y59] | EPHB1 (UniProt P54762) | 0.423 |
| ELQGTYTSLQQ [KIF3C_Y574_R571Q] | EPHB1 (UniProt P54762) | 0.638 |
| TRSCKYLLLSM [NF1_Y491_Y489C] | EPHB1 (UniProt P54762) | 0.521 |
| PADCRYYTFPQ [GAMT_Y222_A224T] | EPHB1 (UniProt P54762) | 3.34 |
| ETKAFYPEEIS [HSPA1A_Y115] | EPHB1 (UniProt P54762) | 0.52 |
| INITIYGKTFR [EFHC1_Y177] | EPHB1 (UniProt P54762) | 0.648 |
| VECRVYAEDPY [PCCA_Y401] | EPHB1 (UniProt P54762) | 0.908 |
